Target: BACE1 enzyme (Homo sapiens, UniProt P56817)
Construct: The HEK293-9B.A1 cell line, which overexpresses the BACE1 enzyme, was derived from HEK293 cells; endogenous in cells; washed 48,000 x g membrane pellet / cell homogenate
Sequence (P56817 46-501): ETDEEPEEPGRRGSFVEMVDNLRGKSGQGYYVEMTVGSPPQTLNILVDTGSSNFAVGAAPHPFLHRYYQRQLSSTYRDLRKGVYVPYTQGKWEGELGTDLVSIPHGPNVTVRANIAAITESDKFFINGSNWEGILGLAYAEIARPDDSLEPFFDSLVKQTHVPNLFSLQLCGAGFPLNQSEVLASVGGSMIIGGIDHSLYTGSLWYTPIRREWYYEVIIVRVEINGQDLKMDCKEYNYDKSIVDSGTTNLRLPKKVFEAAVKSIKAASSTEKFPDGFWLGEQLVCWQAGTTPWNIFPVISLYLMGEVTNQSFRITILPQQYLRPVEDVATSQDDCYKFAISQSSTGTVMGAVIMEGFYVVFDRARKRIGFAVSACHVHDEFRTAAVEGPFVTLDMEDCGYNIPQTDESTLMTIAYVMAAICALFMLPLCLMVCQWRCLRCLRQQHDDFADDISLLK
Test: Radioligand displacement assay with a radiolabeled BACE inhibitor on HEK293-9B.A1 cell homogenate
Details: displacement of 1 nM tritiated radioligand, HEK293-9B.A1 homogenate, pH 5.0, 1.5 hr at 25° C.; read-out: Activity Rating (based on IC50 values)
pIC50: −log10 of the molar value.
QUANTITY: pIC50

{"COMPOUND": "CCCO[C@H]1CN[C@@H]([C@@H](O)[C@H](Cc2cc(F)cc(F)c2)NC(=O)c2cc(C(=O)N(CCC)CCC)cc(-c3ncco3)c2)C1 [Example 12]", "QUANTITY": "pIC50", "MEAS_VALUE": "> 7.00"}

So, CCCCN(C)C(=O)c1cccc(C(=O)N[C@@H](Cc2cc(F)cc(F)c2)[C@H](O)[C@H]2CC(c3ccccc3)CN2)c1 (stereo partly shown) [Example 7] ? Its pIC50 was 6.00 to 7.00

So, CCCO[C@H]1CN[C@@H]([C@@H](O)[C@H](Cc2cc(F)cc(F)c2)NC(=O)c2cc(C(=O)N3CCC[C@@H]3COC)cc(-c3ncco3)c2)C1 [Example 11] ? Its pIC50 was > 7.00

So, CCCN(CCC)C(=O)c1cc(C(=O)N[C@@H](Cc2ccccc2)[C@H](O)[C@H]2C[C@@H](S(=O)(=O)CCC)CN2)cc(-c2ncco2)c1 [Example 17] ? Its pIC50 was > 7.00

meta.source: patent US7981913B2
